# PROCEDURE_SUMMARY: chemical genetic growth profiling, strain panel (AID 1159580);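 note: tested at 20 µM; growth read once vehicle control cultures reached saturation at 30 °C; 1 = growth at the plate median or of vehicle wells; lower values mean less growth of the strain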
# CONDITION: S. cerevisiae deletion strains, growth OD, locus YML094W, strain GIM5, hits give low values
Among all 5,500 compounds or so, about 2,000 (36%) were called active. Another 18% or so got no clear call; they are omitted. The list shows a part of the results.
ATTRIBUTE_MEASURED: normalized growth
I'd appreciate a reply containing only the number, no unit.

Example entries and their recorded answers appear below.
- COMPOUND: "COc1cc([N+](=O)[O-])ccc1N1CCCC1"
  normalized growth: 0.865
- COMPOUND: "c1cc(C2CCCCC2)ccc1C1CCCCC1"
  normalized growth: 1.02
- COMPOUND: "O=C1c2ccccc2C(=O)C1c1ccccc1"
  normalized growth: 0.945
- COMPOUND: "C1CCN(CCC2CCCCN2)CC1 (configuration not stated)"
  normalized growth: 1.01
- COMPOUND: "O=C(COC(=O)c1ccccc1C(=O)c1ccccc1)c1ccccc1"
  normalized growth: 0.99

Form field normalized growth, entry O/N=C\c1sccc1Oc1ccccc1 : 0.927

Form field normalized growth, entry COc1cccc(C(=O)N/N=C(/C)c2ccccc2O)c1 : 0.817

Form field normalized growth, entry COc1cc(/C=C2/SC(=S)NC2=O)cc(OC)c1OC : 0.969

Form field normalized growth, entry Cc1ccc(N=Nc2c(C)[nH]n(C)c2=O)cc1 : 0.822

Form field normalized growth, entry N#Cc1nccnc1Sc1ccc(Cl)cc1 : 0.905

Form field normalized growth, entry COC(=O)c1cc([N+](=O)[O-])ccc1N1CCOCC1 : 1.03

Form field normalized growth, entry COC(=O)CSCCc1nc(-c2ccc([N+](=O)[O-])cc2)cs1 : 0.994

====

# PROCEDURE_SUMMARY: chemical genetic growth profiling, strain panel (AID 1159580)
# CONDITION: S. cerevisiae deletion strains, growth OD, locus YMR263W, strain SAP30, hits give low values
Among all 5,500 compounds or so, about 2,000 (36%) were called active. Roughly 18% stayed inconclusive and do not appear here. The list shows a part of the results.
Decision: normalized growth beneath 1 gives t; normalized growth meeting or exceeding 1 gives f.

- SMILES_CODE: "N#C/C(=C\\N(CCS(=O)(=O)c1ccc(Cl)cc1)Cc1cccs1)S(=O)(=O)c1ccc(Cl)cc1"
  CATEGORY: "f"

Proceed to the following item.
Request: Please determine if NC(=S)c1ccc(Oc2ccc(Cl)cc2)nc1 is below 1 in terms of normalized growth.
Response: t

====

# PROCEDURE_SUMMARY: chemical genetic growth profiling, strain panel (AID 1159580)
# CONDITION: S. cerevisiae deletion strains, growth OD, locus YMR205C, strain PFK2, hits give low values
Hit rate of the full screen: of about 5,500 compounds, about 2,000 (36%) were called active. Another 18% or so got no clear call; they are omitted. Some of the results follow. Where a SMILES comes first, the peptide text is derived from it. Side-chain parts run from the residue outwards. [ ]: non-standard residue; d: D form. The star is where a group is joined. X1 = CCC(C)C(N)C1=NC(C(=O)*)CS1; Orn = NCCC[CH](N)C(=O)O
Reported normalized growth values follow for various compounds
I'd appreciate a reply containing only the number, no unit.

- COMPOUND: "CNC(Cc1c[nH]c2ccccc12)C(=O)O (configuration not stated)"
  ATTRIBUTE_MEASURED: "normalized growth"
  MEASUREMENT: 0.965
- COMPOUND: "CCC(C)C(N)C1=NC(C(=O)NC(CC(C)C)C(=O)NC(CCC(=O)O)C(=O)NC(C(=O)NCCCCC2NC(=O)C(CC(N)=O)NC(=O)C(CC(=O)O)NC(=O)C(Cc3cnc[nH]3)NC(=O)C(Cc3ccccc3)NC(=O)C(C(C)CC)NC(=O)C(CCCN)NC2=O)C(C)CC)CS1 (stereo not drawn) (cyclo(DNK([Ile-Glu-Leu-X1])[Orn]IFH); configuration not given here)"
  ATTRIBUTE_MEASURED: "normalized growth"
  MEASUREMENT: 0.998
- COMPOUND: "CC(C)CC1NC(=O)C(CCCN)NC(=O)C(C(C)C)NC(=O)C2CCCN2C(=O)C(Cc2ccccc2)NC(=O)C(CC(C)C)NC(=O)C(CCCN)NC(=O)C(C(C)C)NC(=O)C2CCCN2C(=O)C(Cc2ccccc2)NC1=O (configuration not stated) (cyclo(FPV[Orn]LFPV[Orn]L); configuration not given here)"
  ATTRIBUTE_MEASURED: "normalized growth"
  MEASUREMENT: 1.02
- COMPOUND: "CO[C@H]1C[C@H](O[C@H]2[C@H](C)[C@@H](OC3O[C@H](C)C[C@H](N(C)C)[C@H]3OC(C)=O)[C@@H](C)C[C@]3(CO3)C(=O)[C@H](C)[C@@H](OC(C)=O)[C@@H](C)[C@@H](C)OC(=O)[C@@H]2C)O[C@@H](C)[C@@H]1OC(C)=O (some centres not stated)"
  ATTRIBUTE_MEASURED: "normalized growth"
  MEASUREMENT: 1.01
- COMPOUND: "c1ccc2c(Cc3c[nH]c4ccccc34)c[nH]c2c1"
  ATTRIBUTE_MEASURED: "normalized growth"
  MEASUREMENT: 0.506

Form field normalized growth, entry OCc1c[nH]c2ccccc12 : 0.849

Form field normalized growth, entry CC(=O)N[C@@H](Cc1c[nH]c2ccccc12)C(=O)O : 0.985

====

# PROCEDURE_SUMMARY: chemical genetic growth profiling, strain panel (AID 1159580);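 note: tested at 20 µM; growth read once vehicle control cultures reached saturation at 30 °C; 1 = growth at the plate median or of vehicle wells; lower values mean less growth of the strain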
# CONDITION: S. cerevisiae deletion strains, growth OD, locus YDL005C, strain med2, hits give low values
Among all 5,500 compounds or so, about 2,000 (36%) were called active. Inconclusive results (about 18%) are left out. The list shows a part of the results.
ATTRIBUTE_MEASURED: normalized growth

Example entries and their recorded answers appear below.
- COMPOUND: "NCCNCCNCCN"
  normalized growth: "1.01 (inactive)"
- COMPOUND: "CNCC[C@@H](Oc1ccccc1)c1ccccc1"
  normalized growth: "0.983 (inactive)"
- COMPOUND: "CCCCc1nc(Cl)c(CO)n1Cc1ccc(-c2ccccc2-c2nn[nH]n2)cc1"
  normalized growth: "0.977 (inactive)"
- COMPOUND: "NC(=O)N1c2ccccc2C=Cc2ccccc21"
  normalized growth: "1.02 (inactive)"
- COMPOUND: "O=C(O)c1cc(=O)c2c(Cl)cc(Cl)cc2[nH]1"
  normalized growth: "1.01 (inactive)"

Form field normalized growth, entry CCOc1cccc(C(=O)c2ccc(O)c(O)c2O)c1 : 0.974 (inactive)

Form field normalized growth, entry CC1(C)C=Cc2cc3ccc(=O)oc3cc2O1 : 0.96 (inactive)

====

# PROCEDURE_SUMMARY: chemical genetic growth profiling, strain panel (AID 1159580);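 note: tested at 20 µM; growth read once vehicle control cultures reached saturation at 30 °C; 1 = growth at the plate median or of vehicle wells; lower values mean less growth of the strain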
# CONDITION: S. cerevisiae deletion strains, growth OD, locus YFL009W, strain cdc4
Out of some 5,500 compounds screened, about 2,000 (36%) were called active. Another 18% or so got no clear call; they are omitted. No stated cut-off is given here; in the data, active means normalized growth mostly below about 0.91 (no sharp cut-off); inconclusive means no clear call, values can overlap the other calls; inactive means mostly above about 0.92. The list shows a part of the results.
Your response should consist of one outcome taken from true (1) for active, false (0) for inactive

Solved cases (3 shown):
- MOLECULE: "CS/C(Nc1cccc(C(F)(F)F)c1)=C(/C#N)S(=O)(=O)c1ccc(Cl)cc1"
  CATEGORY: "false (0)"
- MOLECULE: "OC(CSc1ccccc1)CN1CCN(c2nc(-c3ccccc3)ns2)CC1 (stereo not given)"
  CATEGORY: "false (0)"
- MOLECULE: "Cc1ccc2nc(-c3ccc([N+](=O)[O-])o3)oc(=O)c2c1"
  CATEGORY: "true (1)"

Request: Entry CC(=O)c1ccccc1C(=O)c1ccc(C(C)(C)C)cc1 : call = ?
Response: false (0)

====

Reported normalized growth values follow for various compounds
# PROCEDURE_SUMMARY: chemical genetic growth profiling, strain panel (AID 1159580);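 note: tested at 20 µM; growth read once vehicle control cultures reached saturation at 30 °C; 1 = growth at the plate median or of vehicle wells; lower values mean less growth of the strain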
# CONDITION: S. cerevisiae deletion strains, growth OD, locus YER133W, strain GLC7, hits give low values
Screen size: about 5,500 compounds; about 2,000 (36%) were called active. Another 18% or so got no clear call; they are omitted. Some of the results follow.
I'd appreciate a reply containing only the number, no unit.

Example entries and their recorded answers appear below.
- COMPOUND: "O=C(NNC(=S)Nc1ccc(Cl)cc1)c1ncc(C(F)(F)F)cc1Cl"
  normalized growth: 0.94
- COMPOUND: "OC(CSc1ccccc1)CN1CCN(c2nc(-c3ccccc3)ns2)CC1 (stereo unspecified)"
  normalized growth: 0.941
- COMPOUND: "O=C(c1cc2c(s1)-c1ccccc1CC2)N1CCN(Cc2ccccc2)CC1"
  normalized growth: 0.985
- COMPOUND: "S=C(N/N=C\\c1cccs1)NC1CC2CCC1C2 (stereo unspecified)"
  normalized growth: 0.905
- COMPOUND: "CN1c2ccccc2C(C)(C)C12C=Cc1cc(O)ccc1O2 (stereo unspecified)"
  normalized growth: 0.974

Form field normalized growth, entry S=C(Nc1ccc(Cl)cc1)Nc1ccc(Cl)cc1 : 0.828

Form field normalized growth, entry Clc1ccc(N/N=C\c2sccc2Oc2ccccc2)cc1 : 0.345

Form field normalized growth, entry O=c1c(-c2ccccc2)c(O)c2cccc3c4c(n1c23)CCCC4 : 0.459

Form field normalized growth, entry O=C(Nc1cccnc1)c1cc2c(s1)-c1ccccc1CC2 : 0.548

Form field normalized growth, entry COc1ccc(C2CC(c3ccc(C)cc3C)=NN2C(C)=O)cc1 (stereo unspecified) : 0.911

Form field normalized growth, entry CC(C)(C)C(=O)c1sc2sc(C(=O)C(C)(C)C)c(N)c2c1N : 0.862
